Counter-ions that a name gives are not always drawn.
measurement_name: melting point (°C)

{"columns": ["compound", "measurement_name", "unit_of_measurement", "readout_number"],
 "data": [
  ["CC(C)(C)CNS(=O)(=O)c1ccc(-n2[nH]cc(Cc3cccnc3)c2=O)nc1 (as salt: HCl)", "melting point", "°C", 123],
  ["Cc1[nH]n(-c2ccccn2)c(=O)c1Cc1ccc(N(C)C)cc1", "melting point", "°C", 110],
  ["CCN(c1ccccc1)S(=O)(=O)c1ccc(-n2[nH]c(C(F)(F)F)c(Cc3ccccc3)c2=O)nc1", "melting point", "°C", 186],
  ["Cc1[nH]n(-c2ccccn2)c(=O)c1Cc1ccccc1C#N", "melting point", "°C", 157]
]}
